system: hsa-mir-191 loop; test: normalised indicator fluorescence (fraction of RNA + indicator signal without compound); higher = less displacement of indicator (weaker competition); conditions: compound concentration: 5 uM; 30 min; indicator: TO-PRO-3 0.5 uM; RNA concentration: 0.5 uM
Where a name gives a salt, the structure may show the parent alone.
Item-by-item account of normalised indicator fluorescence

{"molecule": "O=C1C[C@@H](c2ccc(O)cc2)Oc2cc(O)cc(O)c21", "normalised indicator fluorescence": 1.03}
{"molecule": "COC1=C2C[C@@H](C)C[C@H](OC)[C@H](O)[C@@H](C)/C=C(\\C)[C@H](OC(N)=O)[C@@H](OC)/C=C\\C=C(/C)C(=O)NC(=CC1=O)C2=O", "normalised indicator fluorescence": 1.08}
{"molecule": "CCc1cc(C(N)=S)ccn1 [Ethinamide]", "normalised indicator fluorescence": 1.01}
{"molecule": "CN1CCN(c2ccc(C(=O)Nc3n[nH]c4ccc(Cc5cc(F)cc(F)c5)cc34)c(NC3CCOCC3)c2)CC1", "normalised indicator fluorescence": 1.04}
{"molecule": "COc1nccnc1NS(=O)(=O)c1ccc(NC(=O)/C=C/c2ccc([N+](=O)[O-])s2)cc1 [Necrosulfonamide]", "normalised indicator fluorescence": 1.02}
{"molecule": "CCCC(C(=O)OCCN(CC)CC)(c1ccccc1)c1ccccc1 [Proadifen hydrochloride]", "normalised indicator fluorescence": 1.04}
{"molecule": "CC1=C[C@]2(O)O[C@@]3(CC2=C(C)C)[C@@H](C)CC[C@@H]13", "normalised indicator fluorescence": 1.02}
{"molecule": "Oc1ccc(-c2nc(-c3ccc(F)cc3)c(-c3ccncc3)[nH]2)cc1", "normalised indicator fluorescence": 1.04}
{"molecule": "OC[C@H]1O[C@@H](Oc2ccc(O)cc2)[C@H](O)[C@@H](O)[C@@H]1O", "normalised indicator fluorescence": 1.07}
{"molecule": "O=c1ncn2nc(Sc3ccc(F)cc3F)ccc2c1-c1c(Cl)cccc1Cl", "normalised indicator fluorescence": 1.05}
{"molecule": "CC(C)c1cc(-c2n[nH]c(=O)n2-c2ccc3c(ccn3C)c2)c(O)cc1O", "normalised indicator fluorescence": 1.03}
{"molecule": "O=C(Nc1ccc2[nH]nc(-c3ccncc3)c2c1)[C@@H]1CCN(CC(=O)N2CCN(c3ccc(-c4ncccn4)cc3)CC2)C1", "normalised indicator fluorescence": 1.02}
{"molecule": "Cc1oncc1C(=O)Nc1ccc(C(F)(F)F)cc1 [Leflunomide]", "normalised indicator fluorescence": 0.97}
{"molecule": "CCOc1cc(C(=O)N2CCC(N3CCN(C)CC3)CC2)ccc1Nc1ncc2c(n1)N(C1CCCC1)c1ccccc1C(=O)N2C", "normalised indicator fluorescence": 1.04}
{"molecule": "CN(NC(=O)CC(=O)NN(C)C(=S)c1ccccc1)C(=S)c1ccccc1", "normalised indicator fluorescence": 1.03}
{"molecule": "COc1nc(-c2ccc3c(c2)OCO3)n(-c2ccc(NC(=O)CSc3ccccc3)cc2)n1", "normalised indicator fluorescence": 1.02}
{"molecule": "CNC(=O)c1ccc(C)c(-n2c(C)cc(OCc3ccc(F)cc3F)c(Br)c2=O)c1", "normalised indicator fluorescence": 1.03}
{"molecule": "COc1ccc(-c2coc3cc(O)ccc3c2=O)cc1O", "normalised indicator fluorescence": 1.02}
{"molecule": "CC(C)N(CCCCOCC(=O)NS(C)(=O)=O)c1cnc(-c2ccccc2)c(-c2ccccc2)n1", "normalised indicator fluorescence": 1.01}
{"molecule": "CN1CCN(c2nc(C3=C(c4c[nH]c5ccccc45)C(=O)NC3=O)c3ccccc3n2)CC1", "normalised indicator fluorescence": 1.01}
{"molecule": "O=c1cc(-c2ccccc2)oc2cc(O)c(O)c(O)c12", "normalised indicator fluorescence": 0.956}
{"molecule": "N=C(NCCCCCCNC(=N)NC(=N)Nc1ccc(Cl)cc1)NC(=N)Nc1ccc(Cl)cc1 [Chlorhexidine]", "normalised indicator fluorescence": 1.04}
{"molecule": "CO[C@H]1/C=C/O[C@@]2(C)Oc3c(C)c(O)c4c(c3C2=O)C2=NC3(CCN(CC(C)C)CC3)NC2=C(NC(=O)/C(C)=C\\C=C\\[C@H](C)[C@H](O)[C@@H](C)[C@@H](O)[C@@H](C)[C@H](OC(C)=O)[C@@H]1C)C4=O", "normalised indicator fluorescence": 1.01}
{"molecule": "CC1(C)CC(=O)c2c(C(F)(F)F)nn(-c3ccc(C(N)=O)c(N[C@H]4CC[C@H](O)CC4)c3)c2C1", "normalised indicator fluorescence": 1.03}
{"molecule": "CCNC(=O)c1noc(-c2cc(Cl)c(O)cc2O)c1-c1ccc(OC)cc1", "normalised indicator fluorescence": 1.04}
{"molecule": "CC1=NN(c2ccccc2)C(=O)C1", "normalised indicator fluorescence": 1.11}
{"molecule": "C1CCN2C[C@@H]3C[C@@H](CN4CCCC[C@@H]34)[C@H]2C1 [(-)-Sparteine sulfate pentahydrate]", "normalised indicator fluorescence": 1.02}
{"molecule": "CN(C)CCCN1c2ccccc2CCc2ccc(Cl)cc21 [Clomipramine hydrochloride]", "normalised indicator fluorescence": 1.1}
{"molecule": "O=c1cc(-c2ccc(O)cc2)oc2cc(O)cc(O)c12", "normalised indicator fluorescence": 1.05}
{"molecule": "CO[C@@H]1[C@H](N(C)C(=O)c2ccccc2)C[C@H]2O[C@]1(C)n1c3ccccc3c3c4c(c5c6ccccc6n2c5c31)C(=O)NC4", "normalised indicator fluorescence": 1.04}
{"molecule": "O=C1O[C@H]([C@@H](O)CO)C(O)=C1O [L(+)-Ascorbic acid]", "normalised indicator fluorescence": 1}
{"molecule": "NC(=O)c1ccccc1Nc1ccnc(Nc2cccc(O)c2)n1", "normalised indicator fluorescence": 1.02}
{"molecule": "Cn1cc(C2=C(c3cn(CCCSC(=N)N)c4ccccc34)C(=O)NC2=O)c2ccccc21 [Ro 31-8220 Mesylate]", "normalised indicator fluorescence": 0.894}
